Test: cells
Format: functional
Active and inactive are the calls of the source.

smiles.data | IC50
CCOC(=O)CNc1ccc(C(=O)OCC)cc1[N+](=O)[O-] | 13.3 µM (active)
COc1cc(OC)cc(-c2nc3ccccc3c(=O)o2)c1 | 8.58 µM (active)
CC(C)(C)NC(=O)C(=O)NNC(=O)COc1ccc(Br)cc1 | 17.9 µM (active)
Cc1ccc(CNC(=O)c2ccc([N+](=O)[O-])o2)cc1 | 0.16 µM (active)

###

Target: Induced myeloid leukemia cell differentiation protein Mcl-1 (Homo sapiens)
Sequence (Q07820 whole entry): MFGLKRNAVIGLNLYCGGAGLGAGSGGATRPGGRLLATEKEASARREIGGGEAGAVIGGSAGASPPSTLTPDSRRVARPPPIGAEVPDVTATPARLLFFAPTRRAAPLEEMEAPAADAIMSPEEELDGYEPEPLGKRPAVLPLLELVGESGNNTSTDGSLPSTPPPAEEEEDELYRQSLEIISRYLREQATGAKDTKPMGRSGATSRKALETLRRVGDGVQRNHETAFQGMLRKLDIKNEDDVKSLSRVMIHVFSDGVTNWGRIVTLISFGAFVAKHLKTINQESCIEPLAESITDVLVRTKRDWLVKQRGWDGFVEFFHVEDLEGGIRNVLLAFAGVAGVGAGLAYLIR
Type: functional
Calls of active or inactive are those of the source.
In this section, each of the compounds is paired with its reported IC50.

compound | experimental.system | IC50
Cc1nn(CC(=O)Nc2ccc(N(C)C)cc2)c(C)c1[N+](=O)[O-] | Induced myeloid leukemia cell differentiation protein Mcl-1 (Homo sapiens) | 7.62 µM (not active)
O=C1C=CC(=O)C(C2=C3C(=O)N(CCc4ccccc4)CC(=O)N3CCC2)=C1 | Induced myeloid leukemia cell differentiation protein Mcl-1 (Homo sapiens) | 4.75 µM (not active)
O=C1CCCC2=C1C(c1ccc(O)c(O)c1)Nc1ccc3ncccc3c12 (stereo unspecified) | Induced myeloid leukemia cell differentiation protein Mcl-1 (Homo sapiens) | 2.67 µM (active)
Cc1nc2c(c(=O)n1CCC1=CCCCC1)c1nc3ccccc3nc1n2/N=C/c1ccco1 | Induced myeloid leukemia cell differentiation protein Mcl-1 (Homo sapiens) | 4.9 µM (active)
O=C1CCCCC1C(=O)c1ccccc1 (stereo unspecified) | Induced myeloid leukemia cell differentiation protein Mcl-1 (Homo sapiens) | 0.719 µM (not active)
O=C1Oc2ccccc2C(=O)/C1=C/c1ccccc1O | Induced myeloid leukemia cell differentiation protein Mcl-1 (Homo sapiens) | 4.18 µM (active)

###

Target: Calpain-2 catalytic subunit (Sus scrofa)
Sequence (P43367 whole entry): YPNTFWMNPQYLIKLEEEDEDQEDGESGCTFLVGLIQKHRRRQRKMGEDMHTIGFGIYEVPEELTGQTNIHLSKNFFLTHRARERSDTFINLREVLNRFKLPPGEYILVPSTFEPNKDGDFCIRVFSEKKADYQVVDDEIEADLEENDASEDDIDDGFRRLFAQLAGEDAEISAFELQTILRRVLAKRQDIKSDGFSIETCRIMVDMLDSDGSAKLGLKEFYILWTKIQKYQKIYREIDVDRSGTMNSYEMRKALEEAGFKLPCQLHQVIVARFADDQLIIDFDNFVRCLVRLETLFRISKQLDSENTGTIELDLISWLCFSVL
Test: pig calpain II inhibitor potency, dose response, biochemical, fluorogenic peptide substrate (AID 1420)
Assay type: functional

smiles.data | IC50
Fc1c(F)c(C(F)(F)F)c(F)c(F)c1N1CCN(c2ccc3nnc(C(F)(F)F)n3n2)CC1 | 3.07 µM (not active)
CC(C)(C)c1csc(N/N=C/c2cccnc2)n1 | 18.6 µM (not active)
C=C(C)COc1ccc(-c2n[nH]cc2Oc2ccccc2OCC)c(O)c1 | 11.7 µM (not active)
CCc1ccc(S(=O)(=O)NCc2cn3c(C)csc3n2)s1 | 6.07 µM (not active)
Cc1nn(-c2cccc(C(F)(F)F)c2)c(Cl)c1/C=N/Nc1cccc(C(=O)O)c1 | 11.4 µM (not active)

###

Test: microbe, parasite or virus in culture
Type: functional
Conditions: Mycobacterium tuberculosis
The source made the active and inactive calls.
In this section, each of the molecules is paired with its reported CC50.

molecule | CC50
C=C1CCC[C@]2(C)C[C@H]3OC(=O)C(CNC(C)CCCC(C)C)[C@H]3CC12 (some centres undefined) | 27 µM (active)
Cc1oc(C(=O)Nc2ccc(O)cc2)cc1COc1ccccc1 | > 40 µM (active)
CCCN(CCC)CCNC(=O)c1cc2c(-c3ccc(Cl)cc3)nn(C)c2s1 | 15.1 µM (active)
CCc1cc(OCCCCNCc2ccccc2)ccc1Cl | > 40 µM (active)

###

In this section, each of the molecules is paired with its reported AC50.
Target: UniProtKB O96028
Sequence (O96028 whole entry): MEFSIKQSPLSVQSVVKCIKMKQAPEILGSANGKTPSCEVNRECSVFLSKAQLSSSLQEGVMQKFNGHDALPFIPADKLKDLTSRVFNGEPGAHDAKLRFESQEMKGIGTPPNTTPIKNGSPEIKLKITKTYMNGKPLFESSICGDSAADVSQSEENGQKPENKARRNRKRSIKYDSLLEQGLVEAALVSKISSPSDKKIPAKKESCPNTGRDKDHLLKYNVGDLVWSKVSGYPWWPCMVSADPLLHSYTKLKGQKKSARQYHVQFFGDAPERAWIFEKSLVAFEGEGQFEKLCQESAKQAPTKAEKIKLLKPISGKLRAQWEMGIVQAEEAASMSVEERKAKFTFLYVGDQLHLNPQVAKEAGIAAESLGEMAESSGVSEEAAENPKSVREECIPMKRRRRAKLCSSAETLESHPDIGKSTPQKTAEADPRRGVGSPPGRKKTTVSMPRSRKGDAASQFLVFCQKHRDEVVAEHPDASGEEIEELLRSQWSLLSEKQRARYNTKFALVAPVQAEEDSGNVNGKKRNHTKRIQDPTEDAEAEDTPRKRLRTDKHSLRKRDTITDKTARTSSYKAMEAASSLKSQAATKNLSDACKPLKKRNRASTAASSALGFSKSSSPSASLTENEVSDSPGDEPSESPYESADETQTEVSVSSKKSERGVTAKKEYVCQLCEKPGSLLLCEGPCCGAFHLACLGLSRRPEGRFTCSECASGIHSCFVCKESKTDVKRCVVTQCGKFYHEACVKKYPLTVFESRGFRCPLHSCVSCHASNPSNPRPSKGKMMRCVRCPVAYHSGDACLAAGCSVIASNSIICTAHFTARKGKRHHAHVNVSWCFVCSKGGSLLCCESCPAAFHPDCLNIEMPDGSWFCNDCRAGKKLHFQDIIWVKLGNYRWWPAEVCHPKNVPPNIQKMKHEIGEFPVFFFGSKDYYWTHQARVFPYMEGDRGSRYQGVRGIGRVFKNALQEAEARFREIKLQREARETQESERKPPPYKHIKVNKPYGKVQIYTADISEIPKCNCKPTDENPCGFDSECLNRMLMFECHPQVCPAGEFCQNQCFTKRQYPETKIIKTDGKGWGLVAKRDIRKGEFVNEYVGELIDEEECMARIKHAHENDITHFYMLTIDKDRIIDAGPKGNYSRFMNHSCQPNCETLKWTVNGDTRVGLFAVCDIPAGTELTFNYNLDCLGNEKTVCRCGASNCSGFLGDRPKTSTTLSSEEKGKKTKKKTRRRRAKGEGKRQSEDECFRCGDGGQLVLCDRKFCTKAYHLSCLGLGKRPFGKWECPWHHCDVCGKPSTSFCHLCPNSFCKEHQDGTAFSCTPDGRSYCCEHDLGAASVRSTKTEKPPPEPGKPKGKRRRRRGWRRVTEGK
Type: biochemical
The source made the active and inactive calls.
quantity.measured: AC50

molecule | experimental.system | reported.result
CC(=O)OC1C2(CC3N4C(=O)C5(CO)SSC4(CC31O)C(=O)N5C)OC(C)C(C)(C)C2=O (centres undefined) | UniProtKB O96028 | 1.06 µM (active)
O=S(=O)(O)c1cc(O)c2cc(Nc3ccccc3)ccc2c1 | UniProtKB O96028 | 1.8 µM (active)
N#C/C(C(N)=O)=c1/ccc2c(c1)N1C3=C(CCCC3)CC3CCCCC31N=2 (centres undefined) | UniProtKB O96028 | 10.2 µM (active)
CC(=O)C1=C(C)OC2(O)c3ccccc3C(=O)C12O (centres undefined) | UniProtKB O96028 | 4.82 µM (active)

###

Target: Luciferin 4-monooxygenase (Photinus pyralis, UniProt P08659)
Sequence (P08659 whole entry): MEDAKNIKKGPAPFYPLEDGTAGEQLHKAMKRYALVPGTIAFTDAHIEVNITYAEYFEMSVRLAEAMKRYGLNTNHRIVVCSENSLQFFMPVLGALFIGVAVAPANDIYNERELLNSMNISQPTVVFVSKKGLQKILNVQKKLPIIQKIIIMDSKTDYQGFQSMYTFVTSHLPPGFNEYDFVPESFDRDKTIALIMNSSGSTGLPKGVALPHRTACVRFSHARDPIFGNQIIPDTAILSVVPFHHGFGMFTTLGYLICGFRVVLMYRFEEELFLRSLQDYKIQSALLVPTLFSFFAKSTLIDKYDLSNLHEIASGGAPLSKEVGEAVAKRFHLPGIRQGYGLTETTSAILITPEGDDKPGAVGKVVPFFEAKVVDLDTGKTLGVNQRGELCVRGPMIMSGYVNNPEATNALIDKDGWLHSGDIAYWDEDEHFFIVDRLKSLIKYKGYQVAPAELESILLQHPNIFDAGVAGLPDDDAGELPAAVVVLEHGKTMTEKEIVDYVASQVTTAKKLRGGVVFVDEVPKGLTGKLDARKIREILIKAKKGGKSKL
Assay: firefly luciferase enzyme inhibitors, dose response, biochemical, luminescence (AID 1891)
Calls of active or inactive are those of the source.
In this section, each of the compounds is paired with its reported EC50.

compound | EC50
CCc1ccc(C(=O)COC(=O)CNC(=O)c2ccco2)cc1 | > 112 µM (not active)
O=C(Cn1cnc2c(cnn2-c2ccc(F)cc2)c1=O)OCc1ccccc1 | > 112 µM (not active)
COc1ccc(CNC(=O)c2cc(S(=O)(=O)N3CCCC3)cn2C)cc1 | > 112 µM (not active)
CCNC(S)=NNC(=O)c1cc(-c2ccc(OCC)cc2)nc2ccccc12 | < 0.088 µM (active)
COC(=O)C(O)(c1cn(C)c2ccccc12)C(F)(F)F (stereo unspecified) | > 112 µM (not active)
CCN1CCSc2ccc(C(=O)NCc3ccccc3C)cc21 | > 112 µM (not active)

###

Target: Heat shock factor protein 1 (Mus musculus, UniProt P38532)
Sequence (P38532 whole entry): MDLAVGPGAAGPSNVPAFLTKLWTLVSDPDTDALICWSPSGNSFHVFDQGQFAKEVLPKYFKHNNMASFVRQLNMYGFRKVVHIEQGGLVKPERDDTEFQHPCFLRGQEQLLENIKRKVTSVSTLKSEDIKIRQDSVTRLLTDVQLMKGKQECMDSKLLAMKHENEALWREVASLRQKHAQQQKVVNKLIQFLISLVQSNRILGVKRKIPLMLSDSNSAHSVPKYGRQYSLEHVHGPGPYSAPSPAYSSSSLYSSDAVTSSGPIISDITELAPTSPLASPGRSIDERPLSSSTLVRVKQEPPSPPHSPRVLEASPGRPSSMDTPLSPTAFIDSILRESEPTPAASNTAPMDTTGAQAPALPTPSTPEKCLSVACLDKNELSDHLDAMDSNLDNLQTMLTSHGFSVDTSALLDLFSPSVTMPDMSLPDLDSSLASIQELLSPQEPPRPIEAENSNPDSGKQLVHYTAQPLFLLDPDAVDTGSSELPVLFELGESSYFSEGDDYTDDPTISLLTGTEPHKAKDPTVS
Assay: HSF1 potentiators in luciferase reporter cells, confirmation, cell-based, NIH3T3, luminescence, dose retest (AID 435004);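 also: stress induced by proteasome inhibitor MG132 added 30 min after compound; luciferase reporter driven by HSF1 response element in NIH3T3 cells; actives raise luminescence as potentiators of the MG132 stress response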
Format: functional
Activity calls are given as the source filed them.
Outcome codes: active, inactive

molecule | answer.label
COc1ccc(N(CC(=O)NCCC2=CCCCC2)S(=O)(=O)c2ccccc2)cc1 | inactive
O=C1NN(c2ccccc2)C(=O)/C1=C\c1ccc2c(c1)OCO2 | inactive
CC(=O)c1c(N2CCOCC2)nc2ccc(Br)cc2c1-c1ccccc1 | active
O=C1CCC(/C=C/c2ccccc2)=NN1 | inactive
CCOc1ccc(CN(CCCl)CCCl)cc1C(=O)OC | active
Cc1ccc(=O)n(C(C(=O)NCc2ccco2)C(=O)c2ccc(F)cc2)c1 (stereo unspecified) | inactive
COc1ccc2[nH]c(Sc3c([N+](=O)[O-])nc(C)n3Cc3ccccc3)nc2c1 | active
COCCn1c(SCC(=O)NC2CCCCC2)nc2c(c1=O)SCC2 | inactive
O=C(c1ccc(Br)cc1)N1CCCC(c2nc(-c3cccs3)no2)C1 (stereo unspecified) | inactive
CCCCc1cc(O)c(CCCC)c(O)c1 | active
C=CCN1C(=O)NC(c2ccccc2)(C(F)(F)F)S/C1=C(\C#N)c1nnc(N2CCOCC2)n1-c1ccccc1 (stereo unspecified) | active
Fc1ccccc1N=C(S)N1CCN(c2ccccn2)CC1 | inactive
C/C=C/c1c(F)c(F)c(Oc2ccc(C(=O)O)cc2)c(F)c1F | inactive
